Form field: Mydriasis PD200 (one value per entry).
Tested on: mice
Assay: Anticholinergic effect (mydriasis) in mice
Format: in vivo
Conditions: i.v., 10 minutes after injection; dose which increases the pupil by 200%

molecule: CN(C)CCCN1c2ccccc2CCc2ccccc21 [Imipramine, imipramine, reference compound]
Mydriasis PD200: 13 mg/kg
--
molecule: CN(C)C1CCC(c2ccccc2)(c2ccccc2)C1 (stereo not shown)
Mydriasis PD200: < 1 mg/kg
--
molecule: CN(C)CC1CCC(c2ccccc2)(c2ccccc2)C1 (stereo not shown)
Mydriasis PD200: < 1 mg/kg
--
molecule: NCC1CCC(c2ccccc2)(c2ccccc2)C1 (stereo not shown)
Mydriasis PD200: 2.5 mg/kg

* * *

Test system: uptake of tritiated noradrenaline
Assay: Inhibition of the uptake of tritiated noradrenaline in vivo (drug i.p., uptake in cortex slices)
Conditions: in vivo
readout name: inhibition of uptake of noradrenaline in vivo, in words

compound: NC1CCC(c2ccccc2)(c2ccccc2)C1 (centres unmarked)
data value: strong inhibition
//
compound: NC1CCC(c2ccccc2)(c2ccc(Cl)cc2)C1 (centres unmarked)
data value: strong inhibition
//
compound: CN(C)C1CCC(c2ccccc2)(c2ccc(Cl)cc2)C1 (centres unmarked)
data value: strong inhibition

* * *

Assay: Acute toxicity in mice
Settings: mouse, in vivo, iv, within 24 hours

compound: NC1CCC(c2ccccc2)(c2ccc(Cl)cc2)C1 (stereo not shown)
result modifier: =
LD50 at 24 h / mg/kg: 15
--
compound: CNC1CCC(c2ccccc2)(c2ccccc2)C1 (stereo not shown)
result modifier: =
LD50 at 24 h / mg/kg: 30
--
compound: CN(C)CC1CCC(c2ccccc2)(c2ccccc2)C1 (stereo not shown)
result modifier: =
LD50 at 24 h / mg/kg: 30
--
compound: NCC1CCC(c2ccccc2)(c2ccccc2)C1 (stereo not shown)
result modifier: =
LD50 at 24 h / mg/kg: 22
--
compound: COc1ccc(C2(c3ccccc3)CCC(N)C2)cc1 (stereo not shown)
result modifier: >
LD50 at 24 h / mg/kg: 40
--
compound: CN(C)C1CCC(c2ccccc2)(c2ccccc2)C1 (stereo not shown)
result modifier: =
LD50 at 24 h / mg/kg: 18
--
compound: NC1CCC(c2ccc(Cl)cc2)(c2ccc(Cl)cc2)C1 (stereo not shown)
result modifier: =
LD50 at 24 h / mg/kg: 23
--
compound: CNCC1CCC(c2ccccc2)(c2ccccc2)C1 (stereo not shown)
result modifier: =
LD50 at 24 h / mg/kg: 15
--
compound: CN(C)C1CCC(c2ccccc2)(c2ccc(Cl)cc2)C1 (stereo not shown)
result modifier: =
LD50 at 24 h / mg/kg: 30
--
compound: NC1CCC(c2ccccc2)(c2ccccc2)C1 (stereo not shown)
result modifier: =
LD50 at 24 h / mg/kg: 22

* * *

System: mice
Experiment: Anticholinergic effect (mydriasis) in mice
Format: in vivo
Conditions: mouse, in vivo, iv, 10 min
Form field: Mydriasis PD200 (one value per entry).

molecule: NC1CCC(c2ccccc2)(c2ccc(Cl)cc2)C1 (stereo not shown)
Mydriasis PD200: > 12.5 mg/kg
//
molecule: CNC1CCC(c2ccccc2)(c2ccccc2)C1 (stereo not shown)
Mydriasis PD200: 15 mg/kg
//
molecule: NC1CCC(c2ccccc2)(c2ccccc2)C1 (stereo not shown)
Mydriasis PD200: 19 mg/kg
//
molecule: CNCC1CCC(c2ccccc2)(c2ccccc2)C1 (stereo not shown)
Mydriasis PD200: > 12.5 mg/kg
//
molecule: CN(C)C1CCC(c2ccccc2)(c2ccc(Cl)cc2)C1 (stereo not shown)
Mydriasis PD200: < 10 mg/kg
//
molecule: COc1ccc(C2(c3ccccc3)CCC(N)C2)cc1 (stereo not shown)
Mydriasis PD200: > 40 mg/kg
//
molecule: NC1CCC(c2ccc(Cl)cc2)(c2ccc(Cl)cc2)C1 (stereo not shown)
Mydriasis PD200: > 23 mg/kg
